Taken from patent US20150087627A1.

- experimental-system: PI3K β (p110β/p85α) (Homo sapiens, UniProt P42338)
- Construct: purchased Upstate / Millipore Corporation
- Sequence (P42338 whole entry): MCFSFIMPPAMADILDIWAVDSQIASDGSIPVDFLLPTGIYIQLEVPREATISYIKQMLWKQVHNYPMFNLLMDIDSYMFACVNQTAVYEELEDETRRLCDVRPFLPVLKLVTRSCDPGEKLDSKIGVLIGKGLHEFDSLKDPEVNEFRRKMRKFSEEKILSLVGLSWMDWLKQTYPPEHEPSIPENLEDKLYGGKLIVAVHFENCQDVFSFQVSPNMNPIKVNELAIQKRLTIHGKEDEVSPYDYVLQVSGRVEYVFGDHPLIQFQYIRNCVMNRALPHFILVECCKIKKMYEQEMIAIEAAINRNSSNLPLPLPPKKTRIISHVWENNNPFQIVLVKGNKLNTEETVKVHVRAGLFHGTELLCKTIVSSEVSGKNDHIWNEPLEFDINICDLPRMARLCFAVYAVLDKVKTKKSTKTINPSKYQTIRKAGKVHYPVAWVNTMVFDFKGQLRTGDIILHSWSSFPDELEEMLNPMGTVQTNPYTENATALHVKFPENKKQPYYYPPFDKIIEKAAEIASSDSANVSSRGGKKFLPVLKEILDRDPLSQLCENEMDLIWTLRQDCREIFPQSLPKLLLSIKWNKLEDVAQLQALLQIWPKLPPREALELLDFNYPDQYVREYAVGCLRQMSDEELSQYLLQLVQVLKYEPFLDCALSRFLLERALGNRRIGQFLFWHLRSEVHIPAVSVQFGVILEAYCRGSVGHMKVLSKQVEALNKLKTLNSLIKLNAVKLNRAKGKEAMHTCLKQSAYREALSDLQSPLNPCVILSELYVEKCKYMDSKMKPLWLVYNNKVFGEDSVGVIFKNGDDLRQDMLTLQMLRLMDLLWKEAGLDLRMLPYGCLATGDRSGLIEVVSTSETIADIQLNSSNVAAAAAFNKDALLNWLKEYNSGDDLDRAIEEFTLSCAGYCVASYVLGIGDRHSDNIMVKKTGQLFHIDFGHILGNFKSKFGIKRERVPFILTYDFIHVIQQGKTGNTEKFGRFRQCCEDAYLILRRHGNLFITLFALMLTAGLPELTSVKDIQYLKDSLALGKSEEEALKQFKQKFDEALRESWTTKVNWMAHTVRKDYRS
- Sequence (P27986 whole entry partner): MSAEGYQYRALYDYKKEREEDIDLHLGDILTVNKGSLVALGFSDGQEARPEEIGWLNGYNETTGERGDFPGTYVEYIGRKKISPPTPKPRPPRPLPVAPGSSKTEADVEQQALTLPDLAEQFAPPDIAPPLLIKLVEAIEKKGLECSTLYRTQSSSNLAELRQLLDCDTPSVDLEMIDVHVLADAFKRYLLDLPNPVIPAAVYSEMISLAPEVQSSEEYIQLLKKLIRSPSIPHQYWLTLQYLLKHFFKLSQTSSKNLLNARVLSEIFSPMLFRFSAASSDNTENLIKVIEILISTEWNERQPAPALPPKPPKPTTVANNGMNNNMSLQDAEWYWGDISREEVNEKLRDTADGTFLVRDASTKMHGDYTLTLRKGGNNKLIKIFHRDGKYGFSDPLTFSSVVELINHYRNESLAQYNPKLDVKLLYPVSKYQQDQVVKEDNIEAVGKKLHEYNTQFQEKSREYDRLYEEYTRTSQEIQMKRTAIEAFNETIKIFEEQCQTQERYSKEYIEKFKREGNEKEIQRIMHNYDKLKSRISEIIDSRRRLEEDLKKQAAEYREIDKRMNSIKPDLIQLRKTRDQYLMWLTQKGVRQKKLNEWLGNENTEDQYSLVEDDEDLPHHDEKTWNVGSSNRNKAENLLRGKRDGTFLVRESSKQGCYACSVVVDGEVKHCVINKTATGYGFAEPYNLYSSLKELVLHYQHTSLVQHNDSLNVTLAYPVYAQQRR
- assay-text: PI 3-Kinase (human) HTRF assay, PI3K β
- Format: biochemical
- run-conditions: read-out: PI3K β IC50
compounds and their reported IC50
observable: IC50

structure_as_smiles=CN1CCN(c2cnc3ccc(-c4ccc5oc(N)nc5c4)cc3n2)CC1 observable=IC50 data_value="< 0.1 µM"
structure_as_smiles=CC(=O)N1CCC(Nc2ncnc3ccc(-c4ccc5oc(N)nc5c4)cc23)CC1 observable=IC50 data_value="< 10 µM"
structure_as_smiles=Nc1nsc2cc(-c3ccc4ncc(C(=O)N5CCOCC5)n4c3)ccc12 observable=IC50 data_value="> 10 µM"
structure_as_smiles=C[C@@H]1CCCN1C(=O)c1cnc2ccc(-c3ccc4oc(N)nc4c3)cn12 observable=IC50 data_value="< 10 µM"
structure_as_smiles=Nc1nc2ccc(-c3ccc4nnc(C(=O)N5CCCC5)n4c3)cc2o1 observable=IC50 data_value="> 10 µM"
structure_as_smiles=Cc1cn(-c2cnc3ccc(-c4ccc5oc(N)nc5c4)cc3n2)cn1 observable=IC50 data_value="> 10 µM"
structure_as_smiles=CCn1cnc2ccc(-c3ccc4oc(N)nc4c3)cc2c1=O observable=IC50 data_value="< 10 µM"
structure_as_smiles=CC(C)(C)N1CCN(C(=O)c2cnc3ccc(-c4ccc5oc(N)nc5c4)cn23)CC1 observable=IC50 data_value="< 10 µM"
structure_as_smiles=Nc1nc2ccc(-c3ccc4nccc(-c5ccncc5)c4c3)cc2s1 observable=IC50 data_value="> 10 µM"
structure_as_smiles=CC(C)N1CCC(Nc2ncnc3ccc(-c4ccc5oc(N)nc5c4)cc23)CC1 observable=IC50 data_value="< 10 µM"
structure_as_smiles=CC(=O)N1CCN(C(=O)c2cnc3ccc(-c4ccc5oc(N)nc5c4)cn23)CC1 observable=IC50 data_value="> 10 µM"
structure_as_smiles=CC1(C)COCCN1C(=O)c1cnc2ccc(-c3ccc4oc(N)nc4c3)cn12 observable=IC50 data_value="> 10 µM"
structure_as_smiles=CS(=O)(=O)N1CCN(C2CCN(c3cnc4ccc(-c5ccc6oc(N)nc6c5)cc4n3)CC2)CC1 observable=IC50 data_value="< 10 µM"
structure_as_smiles=C[C@H]1CN(c2cnc3ccc(-c4ccc5oc(N)nc5c4)cc3c2)CCN1 observable=IC50 data_value="< 0.1 µM"
structure_as_smiles=CS(=O)(=O)N1CCC(Nc2cnc3ccc(-c4ccc5oc(N)nc5c4)cc3n2)CC1 observable=IC50 data_value="< 10 µM"
structure_as_smiles=Nc1nc2cc(-c3ccc4ncc(N5CC(N6CCOCC6)C5)nc4c3)c(F)cc2o1 observable=IC50 data_value="< 10 µM"
structure_as_smiles=Nc1nc2ccc(-c3ccc4sc(N)nc4c3)cc2o1 observable=IC50 data_value="< 0.1 µM"
structure_as_smiles=Nc1nc2cc(-c3ccc4ncc(NCCN5CCOCC5)nc4c3)ccc2o1 observable=IC50 data_value="< 1 µM"
structure_as_smiles=Nc1nc2cc(-c3ccc4ncc(N5CC(N6CC[C@H](O)C6)C5)nc4c3)ccc2o1 observable=IC50 data_value="< 1 µM"
structure_as_smiles=COc1ncc(-c2ccc3ncn(C4CCN(C)CC4)c(=O)c3c2)cc1NS(=O)(=O)c1ccccc1 observable=IC50 data_value="< 0.1 µM"
structure_as_smiles=Nc1nc2cc(-c3ccc4ncc(C(=O)N5CC(N6CC[C@H](O)C6)C5)n4c3)ccc2o1 observable=IC50 data_value="< 10 µM"
structure_as_smiles=Nc1nc2cc(-c3ccc4ncc(N5CCOCC5)nc4c3)ccc2o1 observable=IC50 data_value="< 1 µM"
structure_as_smiles=CC(=O)Nc1nc2ccc(-c3cc(F)c4oc(N)nc4c3)cc2s1 observable=IC50 data_value="< 0.1 µM"
structure_as_smiles=COCCn1cnc2ccc(-c3ccc4oc(N)nc4c3)cc2c1=O observable=IC50 data_value="< 10 µM"
structure_as_smiles=Nc1nc2cc(-c3ccc4ncc(N5CCNC(=O)C5)nc4c3)ccc2o1 observable=IC50 data_value="< 1 µM"
structure_as_smiles=CN1CCN([C@H]2CCN(c3cnc4ccc(-c5ccc6oc(N)nc6c5)cc4n3)C2)CC1 observable=IC50 data_value="< 1 µM"
structure_as_smiles=Nc1nc2cc(-c3ccc4ncc(N5CCN(CC6CC6)CC5)nc4c3)ccc2o1 observable=IC50 data_value="< 0.1 µM"
structure_as_smiles=Nc1nc2cc(-c3ccc4ncn(CCO)c(=O)c4c3)ccc2o1 observable=IC50 data_value="< 10 µM"
structure_as_smiles=C[C@H]1CN(C2CN(c3cnc4ccc(-c5ccc6oc(N)nc6c5)cc4n3)C2)CCN1 observable=IC50 data_value="< 10 µM"
